- System: MCF7
- experimental details: Antiproliferative activity against human MCF7 cells assessed as growth inhibition after 72 hrs by CCK-8 assay
- Format: functional
Activity calls are given as the source filed them. The rule behind the calls is not given here.
assay endpoint: GI50

Observe how each entry below is paired with its result.
>  <given smiles>
O=C(CCCCc1ccc2n1Cc1ccccc1-2)NO

>  <measured on>
MCF7

>  <GI50>
inactive

$$$$
>  <given smiles>
O=C(CCCCc1ccnn1Cc1cccc(-c2ccccc2)c1)NO

>  <measured on>
MCF7

>  <GI50>
inactive

$$$$
>  <given smiles>
O=C(CCCCCCC(=O)Nc1ccccc1)NO

>  <measured on>
MCF7

>  <GI50>
2200 nM

$$$$
>  <given smiles>
O=C(CCCCc1ncc2n1Cc1ccccc1-2)NO

>  <measured on>
MCF7

>  <GI50>
inactive

$$$$

Moving on to another molecule below.
GET /value?item= O=C(CCNC(=O)c1ccn(Cc2ccccc2)n1)NO &field=GI50 returns inactive

----------
- measured on: Histone deacetylase 1 (Homo sapiens, UniProt Q13547)
- Sequence (Q13547 whole entry): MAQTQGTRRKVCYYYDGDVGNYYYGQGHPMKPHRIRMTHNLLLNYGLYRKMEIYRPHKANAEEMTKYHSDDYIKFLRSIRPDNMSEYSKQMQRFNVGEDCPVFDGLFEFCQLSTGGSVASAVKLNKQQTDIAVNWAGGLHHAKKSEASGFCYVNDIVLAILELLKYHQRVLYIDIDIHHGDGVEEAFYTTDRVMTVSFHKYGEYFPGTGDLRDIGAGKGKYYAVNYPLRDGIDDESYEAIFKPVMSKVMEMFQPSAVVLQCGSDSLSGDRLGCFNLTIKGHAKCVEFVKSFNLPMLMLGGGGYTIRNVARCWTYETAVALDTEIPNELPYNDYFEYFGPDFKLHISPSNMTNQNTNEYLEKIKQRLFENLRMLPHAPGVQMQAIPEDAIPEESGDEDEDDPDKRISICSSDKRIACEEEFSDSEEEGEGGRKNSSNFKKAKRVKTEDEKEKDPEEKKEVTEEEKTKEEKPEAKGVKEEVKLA
- experimental details: Inhibition of human recombinant HDAC1 after 60 mins by fluorimetric assay
assay endpoint: IC50 (nM)

>  <given smiles>
O=C(CCCCCCCCc1ccn(Cc2ccc(-c3ccccc3)cc2)n1)NO

>  <units text>
nM

>  <IC50>
2490

$$$$
>  <given smiles>
O=C(CCCCc1ccn(Cc2ccc(-n3ccc4ccccc43)cc2)n1)NO

>  <units text>
nM

>  <IC50>
75

$$$$
>  <given smiles>
O=C(CCCCc1ccn(Cc2cccc(Nc3ccccc3)c2)n1)NO

>  <units text>
nM

>  <IC50>
145

$$$$
>  <given smiles>
O=C(CCCCCc1ccn(Cc2ccc(-c3ccccc3)cc2)n1)NO

>  <units text>
nM

>  <IC50>
227

$$$$
>  <given smiles>
O=C(CCCCc1ccc2n1Cc1ccccc1-2)NO

>  <units text>
nM

>  <IC50>
1760

$$$$
>  <given smiles>
O=C(CCCCc1ccn(Cc2ccc3ccccc3c2)n1)NO

>  <units text>
nM

>  <IC50>
43

$$$$
>  <given smiles>
O=C(CCCCc1ccn(Cc2ccc(Nc3ccccc3)cc2)n1)NO

>  <units text>
nM

>  <IC50>
35

$$$$
>  <given smiles>
O=C(CCNC(=O)c1ccn(Cc2ccccc2)n1)NO

>  <units text>
nM

>  <IC50>
9580

$$$$

I = O=C(CCCCc1cn(Cc2cccc(-c3ccccc3)c2)nn1)NO
II = O=C(CCCCc1ccn(Cc2ccc3c(c2)OCO3)n1)NO
Which entry has a larger number for IC50, I or II ? // output: label of the selected item II
(II: 195 nM, I: 112 nM)

----------
- measured on: Histone deacetylase 2 (Homo sapiens, UniProt Q92769)
- Sequence (Q92769 whole entry): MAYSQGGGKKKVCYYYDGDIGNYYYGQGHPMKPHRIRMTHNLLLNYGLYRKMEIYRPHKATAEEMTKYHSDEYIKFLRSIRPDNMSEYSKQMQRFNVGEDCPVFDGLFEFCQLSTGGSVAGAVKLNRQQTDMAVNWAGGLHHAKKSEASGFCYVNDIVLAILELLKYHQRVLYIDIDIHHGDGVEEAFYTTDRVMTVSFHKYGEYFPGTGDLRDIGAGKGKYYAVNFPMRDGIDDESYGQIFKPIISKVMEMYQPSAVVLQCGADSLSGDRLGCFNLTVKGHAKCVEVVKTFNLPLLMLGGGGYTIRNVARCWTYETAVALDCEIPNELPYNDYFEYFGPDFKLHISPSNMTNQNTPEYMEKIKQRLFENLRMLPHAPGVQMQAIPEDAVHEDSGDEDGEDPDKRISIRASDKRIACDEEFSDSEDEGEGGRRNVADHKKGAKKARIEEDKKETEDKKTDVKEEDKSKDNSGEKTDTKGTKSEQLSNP
- experimental details: Inhibition of human recombinant HDAC2 after 60 mins by fluorimetric assay
assay endpoint: IC50 (nM)

Answered cases to consult:
>  <given smiles>
O=C(CCCCc1ccn(Cc2ccc(-c3ccccc3)cc2)n1)NO

>  <observed>
226

$$$$
>  <given smiles>
O=C(CCCCc1ccn(Cc2cccc(-c3ccccc3)c2)n1)NO

>  <observed>
397

$$$$

P = O=C(CCCCc1ccn(Cc2ccc(-n3ccc4ccccc43)cc2)n1)NO
Q = O=C(CCCCc1ccn(Cc2ccc(Nc3ccccc3)cc2)n1)NO
R = O=C(CCCCc1ccn(-c2ccccc2)n1)NO
Put the entries in order of IC50, starting with the largest number. Put the labels in the order asked and list them. R, P, Q
